Percent Growth Inhibition by entry:
test system: tobacco budworm (Heliothis virescens [Fabricius]); assay: surface-treated diet test against tobacco budworm; assay type: in vivo; settings: 0.25 millimoles of candidate insecticide on the surface of the diet; second instar larvae; five-day exposure; inhibition of insect weight relative to untreated controls
Field: numeric (%). Do not append units.

# count of solved cases: 5
Cn1nnc(-c2ccc(CN3CCC(C(=NNC(=O)c4cccc(Cl)c4)c4ccc(OC(F)(F)F)cc4)CC3)cc2)n1 100
FC(F)(F)c1ccc(C(c2ccc(C(F)(F)F)cc2)N2CCN(Cc3ccc(Oc4ncccn4)cc3)CC2)cc1 100
Cn1nnc(-c2ccc(CN3CCC(C(=NNC(=O)c4ccc(F)cc4)c4ccc(OC(F)(F)F)cc4)CC3)cc2)n1 87
[O-][N+]1(Cc2ccc(Oc3ccccn3)cc2)CCN(C(c2ccc(C(F)(F)F)cc2)c2ccc(C(F)(F)F)cc2)CC1 100
Cn1nnc(-c2ccc(CN3CCC(C(=NNC(=O)c4ccc(Br)cc4)c4ccc(OC(F)(F)F)cc4)CC3)cc2)n1 100

Problem: Can you look up the measured Percent Growth Inhibition of CCn1nnc(-c2ccc(CN3CCC(C(=NNc4ccc(C(F)(F)F)cc4)c4ccc(OC(F)(F)F)cc4)CC3)cc2)n1 for me?
Result: 96
